Values were extracted from PubChem BioAssay.

- TESTED_ON: Fibroblast growth factor 2 (Homo sapiens) (UniProt P09038)
- Sequence (P09038 whole entry, looked up): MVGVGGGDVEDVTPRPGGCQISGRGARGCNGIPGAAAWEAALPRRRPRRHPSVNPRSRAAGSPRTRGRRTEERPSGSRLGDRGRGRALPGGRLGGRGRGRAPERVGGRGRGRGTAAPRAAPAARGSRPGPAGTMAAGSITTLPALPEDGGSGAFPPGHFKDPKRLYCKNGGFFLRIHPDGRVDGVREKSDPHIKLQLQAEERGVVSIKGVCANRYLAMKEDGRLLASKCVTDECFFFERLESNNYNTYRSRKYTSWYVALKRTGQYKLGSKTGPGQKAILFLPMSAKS
- ASSAY: FGF2 binders on small-molecule microarrays, primary screen, biochemical, small-molecule microarray, 635/667 nm fluorescence (AID 1133)
- ASSAY_SETUP: small-molecule microarray binding, FGF2, fluorescence 635/667; higher = more signal
Assign class by composite z-score: not lower than 0.6 means met; lower than 0.6 means not met.

Solved cases (3 shown):
Please tell me: is the compound "C=C(/C(=C/C[C@@H](OC(=O)c1ccncc1)c1ccc(OCCO)cc1)c1cnc2ccccc2c1)C(C)C" at or over 0.6 in terms of composite z-score?
met

# check: composite z-score of "[N-]=[N+]=NCc1ccccc1C[C@]1(C(=O)NCc2ccccc2)N=C(c2ccc(OCCCO)cc2)O[C@H]1c1ccccc1N=[N+]=[N-]" is greater than or equal to 0.6
met

Assess whether reported composite z-score for "CCOC(=O)CCN1C(=O)[C@H]2[C@H]3[C@H](O)[C@H](O)CC(=NNC(=O)OCc4ccc(OC)cc4)[C@@H]3CC[C@H]2C1=O" sits at 0.6 or higher.
not met

More entries:
Does the compound "C=C(/C(=C/C[C@H](OC(=O)c1ccncc1)c1ccc(OCCO)cc1)c1cnc2ccccc2c1)C(C)C" have recorded composite z-score that is 0.6 or more?
met

Test whether the compound "Cc1cc(C)c(-c2cc([C@H](C)ON=C3[C@H]4CCn5c(=O)n(-c6ccccc6)c(=O)n5[C@H]4[C@H](O)[C@@H]4O[C@H]34)on2)c(C)c1" records composite z-score of 0.6 or higher.
met

Is it the case that COC(=O)[C@@H]1CC[C@H](C)[C@@H](c2ccc(C)cc2)N1C(=O)c1ccc(C=NOC(C)CN2CCCCc3nc(C)c(C)cc32)cc1 (stereo partly specified) has composite z-score reaching or exceeding 0.6?
not met
